B1: ALDH8A1 (parent)
chain: WSSRSPQERSRVLNQVADLLEQSL

variants of: B1; assay: protein stability index of a GFP-peptide fusion (GPS, HEK-293T) (PSI 1-6); higher = more stable; settings: c terminus: a fixed tail appended;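 note: lentivirally expressed fusions sorted by FACS into six bins by GFP to DsRed ratio, PSI derived from sequencing read proportions per bin multiplied by bin number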
Note: every record was labeled by where its protein stability index sits among range 1 = under 2, range 2 = from 2 up to 3, range 3 = 3 and over

MUTATION_CODE: V16S
ASSIGNED_CATEGORY: range 3
//
MUTATION_CODE: D18G
ASSIGNED_CATEGORY: range 2
//
MUTATION_CODE: S3R
ASSIGNED_CATEGORY: range 2
//
MUTATION_CODE: L20F
ASSIGNED_CATEGORY: range 2
//
MUTATION_CODE: S5M
ASSIGNED_CATEGORY: range 2
//
MUTATION_CODE: S2C
ASSIGNED_CATEGORY: range 1
//
MUTATION_CODE: L20R
ASSIGNED_CATEGORY: range 3
//
MUTATION_CODE: R9V
ASSIGNED_CATEGORY: range 2
//
MUTATION_CODE: L19H
ASSIGNED_CATEGORY: range 3
//
MUTATION_CODE: Q15D
ASSIGNED_CATEGORY: range 3
//
MUTATION_CODE: W1E
ASSIGNED_CATEGORY: range 3
//
MUTATION_CODE: S10D
ASSIGNED_CATEGORY: range 3
//
MUTATION_CODE: A17V
ASSIGNED_CATEGORY: range 2
//
MUTATION_CODE: Q22C
ASSIGNED_CATEGORY: range 1
//
MUTATION_CODE: A17F
ASSIGNED_CATEGORY: range 2
//
MUTATION_CODE: V16Q
ASSIGNED_CATEGORY: range 3
//
MUTATION_CODE: D18H
ASSIGNED_CATEGORY: range 2
//
MUTATION_CODE: E21G
ASSIGNED_CATEGORY: range 2
//
MUTATION_CODE: Q15G
ASSIGNED_CATEGORY: range 2
//
MUTATION_CODE: L19P
ASSIGNED_CATEGORY: range 3
//
MUTATION_CODE: E21W
ASSIGNED_CATEGORY: range 1
//
MUTATION_CODE: L19A
ASSIGNED_CATEGORY: range 3
//
MUTATION_CODE: R4M
ASSIGNED_CATEGORY: range 2
//
MUTATION_CODE: S5C
ASSIGNED_CATEGORY: range 2
//
MUTATION_CODE: Q7C
ASSIGNED_CATEGORY: range 2
//
MUTATION_CODE: E8A
ASSIGNED_CATEGORY: range 2
//
MUTATION_CODE: V12Y
ASSIGNED_CATEGORY: range 2
//
MUTATION_CODE: R4G
ASSIGNED_CATEGORY: range 2
//
MUTATION_CODE: S2F
ASSIGNED_CATEGORY: range 2
//
MUTATION_CODE: L24D
ASSIGNED_CATEGORY: range 3
//
MUTATION_CODE: L13D
ASSIGNED_CATEGORY: range 3
//
MUTATION_CODE: V16T
ASSIGNED_CATEGORY: range 3
//
MUTATION_CODE: R9E
ASSIGNED_CATEGORY: range 3
//
MUTATION_CODE: Q15K
ASSIGNED_CATEGORY: range 2
//
MUTATION_CODE: S2W
ASSIGNED_CATEGORY: range 1
//
MUTATION_CODE: V16W
ASSIGNED_CATEGORY: range 2
//
MUTATION_CODE: R11M
ASSIGNED_CATEGORY: range 1
//
MUTATION_CODE: R9Y
ASSIGNED_CATEGORY: range 2
//
MUTATION_CODE: Q22L
ASSIGNED_CATEGORY: range 1
